Molecular target: Hexokinase-4 (Homo sapiens)
Sequence (P35557 whole entry): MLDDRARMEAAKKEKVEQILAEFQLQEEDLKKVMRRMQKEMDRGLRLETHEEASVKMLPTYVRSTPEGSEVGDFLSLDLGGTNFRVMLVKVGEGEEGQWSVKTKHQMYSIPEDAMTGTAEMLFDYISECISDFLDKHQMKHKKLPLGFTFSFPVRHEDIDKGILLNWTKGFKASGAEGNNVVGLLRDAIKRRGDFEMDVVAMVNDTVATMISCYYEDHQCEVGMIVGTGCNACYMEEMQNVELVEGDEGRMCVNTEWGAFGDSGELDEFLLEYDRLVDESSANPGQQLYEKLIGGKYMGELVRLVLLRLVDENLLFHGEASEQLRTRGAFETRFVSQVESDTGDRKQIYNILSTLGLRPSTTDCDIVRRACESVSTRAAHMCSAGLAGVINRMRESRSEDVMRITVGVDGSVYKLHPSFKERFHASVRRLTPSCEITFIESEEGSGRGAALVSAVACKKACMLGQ
Assay: Activation of human glucokinase
pEC50: −log10 of the molar value.
MEASURED QUANTITY: pEC50

>>> experimental_result("Cn1ccc(NC(=O)CSc2ncnc3c2cnn3-c2ccccc2Cl)n1")
4.80
>>> experimental_result("Cc1csc(NC(=O)CSc2ncnc3c2cnn3-c2ccccc2Cl)n1")
5.60

a = COCC[C@H](Oc1ncnc2c1cnn2-c1ccccc1Cl)C(=O)Nc1ccc(C)cn1
b = COCC[C@H](Oc1ncnc2c1cnn2-c1ccccc1OC)C(=O)Nc1ccc(C)cn1
c = COCCC(Sc1ncnc2c1cnn2-c1ccccc1Cl)C(=O)Nc1nc(C)cs1 (racemic)
d = COCCC(Oc1ncnc2c1cnn2-c1ccccc1C)C(=O)Nc1ccc(C)cn1 (racemic)
e = Cc1ccc(NC(=O)CSc2ncnc3c2cnn3-c2ccccc2Cl)nc1
Which order do these items take when sorted by rising pEC50? List them. A complete answer lists every label in the requested sequence.
c, e, d, b, a

A = CCCCC(Oc1ncnc2c1cnn2-c1ccccc1Cl)C(=O)Nc1nc(C)cs1 (racemic)
B = COCCC(Oc1ncnc2c1cnn2-c1ccccc1OC)C(=O)Nc1ccc(C)cn1 (racemic)
Return label of the item with the larger pEC50. Candidates: A , B . Returns: label corresponding to the selected item.
A
(A: 6.90, B: 6.70)

====

Assay: Solubility of the compound
MEASURED QUANTITY: solubility (µM)

>>> experimental_result("COCC[C@H](Oc1ncnc2c1cnn2-c1ccccc1OC)C(=O)Nc1ccc(C)cn1")
86
>>> experimental_result("COCC[C@H](Oc1ncnc2c1cnn2-c1ccccc1Cl)C(=O)Nc1ccc(C)cn1")
95

====

Target: Voltage-gated inwardly rectifying potassium channel KCNH2 (Homo sapiens)
Sequence (Q12809 whole entry): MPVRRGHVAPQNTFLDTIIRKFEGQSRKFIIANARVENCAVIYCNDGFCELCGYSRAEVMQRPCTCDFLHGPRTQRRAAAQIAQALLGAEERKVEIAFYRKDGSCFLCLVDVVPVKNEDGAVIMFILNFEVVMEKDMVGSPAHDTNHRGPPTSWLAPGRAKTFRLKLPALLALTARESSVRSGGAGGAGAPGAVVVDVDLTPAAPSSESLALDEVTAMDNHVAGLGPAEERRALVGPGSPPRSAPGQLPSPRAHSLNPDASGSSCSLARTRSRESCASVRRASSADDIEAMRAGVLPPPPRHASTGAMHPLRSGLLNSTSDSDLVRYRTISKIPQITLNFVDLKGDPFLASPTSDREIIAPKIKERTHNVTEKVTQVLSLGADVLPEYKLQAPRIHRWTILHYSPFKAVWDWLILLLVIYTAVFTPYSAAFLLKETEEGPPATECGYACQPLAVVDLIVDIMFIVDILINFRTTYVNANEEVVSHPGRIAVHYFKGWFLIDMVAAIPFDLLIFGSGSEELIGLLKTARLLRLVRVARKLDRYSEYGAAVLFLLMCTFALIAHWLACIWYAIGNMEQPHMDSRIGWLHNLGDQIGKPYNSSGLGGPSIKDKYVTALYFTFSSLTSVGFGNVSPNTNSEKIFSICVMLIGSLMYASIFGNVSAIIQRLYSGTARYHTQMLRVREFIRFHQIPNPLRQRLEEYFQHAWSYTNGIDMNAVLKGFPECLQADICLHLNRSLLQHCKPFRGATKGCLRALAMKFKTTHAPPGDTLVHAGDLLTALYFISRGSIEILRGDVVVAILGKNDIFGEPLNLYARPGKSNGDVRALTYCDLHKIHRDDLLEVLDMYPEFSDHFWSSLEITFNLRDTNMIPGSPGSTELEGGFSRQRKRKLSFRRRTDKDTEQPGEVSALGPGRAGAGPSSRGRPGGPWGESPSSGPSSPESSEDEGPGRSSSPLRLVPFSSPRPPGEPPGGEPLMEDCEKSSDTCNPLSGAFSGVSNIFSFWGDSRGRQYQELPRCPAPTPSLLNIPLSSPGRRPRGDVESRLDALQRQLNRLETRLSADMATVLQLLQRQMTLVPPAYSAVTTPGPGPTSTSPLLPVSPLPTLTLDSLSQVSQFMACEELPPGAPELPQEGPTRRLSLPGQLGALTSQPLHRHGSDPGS
MEASURED QUANTITY: pIC50
# pIC50: negative log10 of molar concentration; output just the value

Quote pIC50 with test system Voltage-gated inwardly rectifying potassium channel KCNH2 (Homo sapiens) for `COCC[C@H](Oc1ncnc2c1cnn2-c1ccccc1Cl)C(=O)Nc1ccc(C)cn1`
4.66

====

Biological target: Hexokinase-4 (Homo sapiens)
Assay: Activation of human glucokinase
pEC50: −log10 of the molar value.
MEASURED QUANTITY: pEC50

>>> experimental_result("Cc1csc(NC(=O)C(Sc2ncnc3c2cnn3-c2ccccc2Cl)c2ccccc2)n1 (racemic)")
"< 4.00"
>>> experimental_result("O=C(CSc1ncnc2c1cnn2-c1ccccc1Cl)Nc1ccccc1")
"< 4.00"

Note down pEC50 recorded for `O=C(CSc1ncnc2c1cnn2-c1ccccc1Cl)Nc1ncccn1`
< 4.00
